test system: TEC; conditions: concentration: 1 μM,replicates: in singlicate; n = 1;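 note: KINOMEscan kinase panel screen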
property: %Inh (%)
Give bare numbers, in %.

1) Cl.Cl.NC[C@H](Cc1ccc(C(F)(F)F)cc1)NC(=O)c1cc(Br)c(-c2ccnc3[nH]ccc23)s1    8
2) CN(C)CCOc1ccc(-c2cc(-c3c[nH]nc3-c3ccccn3)ccn2)cc1    13
3) Cc1occc1-c1nc(N)c(OC[C@@H](N)Cc2c[nH]c3ccccc23)cc1-c1cc2c(C)n[nH]c2cn1    0

Please find the next compound below.
Please indicate %Inh recorded for Cc1cc(C(=O)Nc2ccc(Oc3ccc4nc(NC(=O)C5CC5)cn4n3)cc2)nn1-c1ccccc1
37

* * *

system: ERBB4; conditions: concentration: 1 μM,replicates: in singlicate; n = 1
property: %Inh (%)
One number for each entry, in %.

Below, each entry is followed by its recorded %Inh result.
1. Cc1cc2cn[nH]c2cc1-c1cccc2c(N)c(C(N)=O)nnc12    87
2. Cc1ccc(-n2nc(C(C)(C)C)cc2NC(=O)Nc2ccc(OCCN3CCOCC3)c3ccccc23)cc1 [GW839464]    0
3. CCN(CC)CCCCNc1ncc2cc(-c3c(Cl)cccc3Cl)c(NC(=O)NC(C)(C)C)nc2n1    38
4. O=C(NCCCN1CCOC1=O)c1cnc(NCc2cc(Cl)ccc2Cl)nc1NC1CCCC1    9
5. Cc1cc(C(=O)Nc2ccc(Oc3ccc4nc(NC(=O)C5CC5)cn4n3)cc2)nn1-c1ccccc1    19

Report %Inh for every entry below.
1. Cc1n[nH]c2ccc(-c3cc(OC[C@@H](N)Cc4ccccc4)cnc3-c3ccoc3)cc12.O=C(O)C(F)(F)F.O=C(O)C(F)(F)F [GSK507358]
2. Cc1occc1-c1nc(N)c(OC[C@@H](N)Cc2c[nH]c3ccccc23)cc1-c1cc2c(C)n[nH]c2cn1 [GSK1660450]
3. NC(=O)c1cc(-c2ccccc2)cc2c(C3CCNCC3)c[nH]c12 [GSK301362]

64
56
9

* * *

system: MAP4K3; settings: concentration: 1 μM,replicates: in singlicate; n = 1
property: %Inh

Below, each entry is followed by its recorded %Inh result.
1) Cl.Cl.NC[C@H](CC1CCCCC1)NC(=O)c1cc(Br)c(-c2ccnc3[nH]ccc23)s1    26%
2) CCN(CC)CCCCNc1ncc2cc(-c3c(Cl)cccc3Cl)c(NC(=O)NC(C)(C)C)nc2n1    74%
3) CNC(=O)c1ccccc1Sc1ccc2c(/C=C/c3ccccn3)n[nH]c2c1    28%

Please indicate %Inh recorded for Cc1ccc(-n2nc(C(C)(C)C)cc2NC(=O)Nc2ccc(OCCN3CCOCC3)c3ccccc23)cc1
0%

* * *

Would you kindly list %Inh for each of these compounds?
test system: TAK1; construct: gene MAP3K7; details: concentration: 1 μM,replicates: in singlicate; n = 1
Numbers only, in %.

Below, each entry is followed by its recorded %Inh result.
1) CCN(CC)CCOc1ccc(Nc2ncc3cc(-c4c(Cl)cccc4Cl)c(=O)n(C)c3n2)cc1    65
2) COc1ccc(C[C@@H](CN)NC(=O)c2cc(Br)c(-c3ccnc4[nH]ccc34)s2)cc1.Cl.Cl    75
3) CC(C)Nc1cc(-c2ccc3c(N)n[nH]c3c2)nc(N)n1    2
4) CC(C)N1C(=O)Cc2cc(Nc3ncc(C(F)(F)F)c(NCc4cccc(S(C)(=O)=O)c4)n3)ccc21    70
5) Cc1ccc2c(-c3ccncc3)c(-c3ccc(F)cc3)nn2c1.Cl    70

Report %Inh for every entry below.
1. Cl.Cl.NC[C@H](Cc1ccc(C(F)(F)F)cc1)NC(=O)c1cc(Br)c(-c2ccnc3[nH]ccc23)s1
2. Cc1cc(C(=O)Nc2ccc(Oc3ccc4nc(NC(=O)C5CC5)cn4n3)cc2)nn1-c1ccccc1
3. Cc1ccc(-n2nc(C(C)(C)C)cc2NC(=O)Nc2ccc(OCCN3CCOCC3)c3ccccc23)cc1

1: 11; 2: 0; 3: 76

Report %Inh for every entry below.
1. Cl.Cl.NC[C@H](CC1CCCCC1)NC(=O)c1cc(Br)c(-c2ccnc3[nH]ccc23)s1
2. Nc1nc(Nc2ccccc2)cc(-c2ccc3c(N)n[nH]c3c2)n1
3. O=C(NCCCN1CCOC1=O)c1cnc(NCc2cc(Cl)ccc2Cl)nc1NC1CCCC1
4. Cc1occc1-c1nc(N)c(OC[C@@H](N)Cc2c[nH]c3ccccc23)cc1-c1cc2c(C)n[nH]c2cn1

[0, 36, 0, 97.2]

Report %Inh for every entry below.
1. CCn1c(-c2nonc2N)nc2c(C#CC(C)(C)O)nc(OCCN)cc21.Cl.Cl
2. CN(C)CC(O)COc1ccc(Nc2nccc(-c3cnn4nc(N5CCOCC5)ccc34)n2)cc1 (stereo not shown)
3. C=CC(=O)Nc1cc2c(Nc3ccc(F)c(Cl)c3)ncnc2cc1OCCCN1CCOCC1
4. CCN(CC)CCCCNc1ncc2cc(-c3c(Cl)cccc3Cl)c(NC(=O)NC(C)(C)C)nc2n1

[0, 63, 20, 57]
